# Test system: T47D
# TEST_DESCRIPTION: NCI tumour cell line growth inhibition, 48 h
Calls of active or inactive are those of the source. Rule as the data show it: active = GI50 up to about 1.1 µM and inactive = higher.
RECORDED_ENDPOINT: GI50

> print(dat)
                                    molecule  recorded.endpoint                value
 1   O=C1C(=O)c2c(oc(=O)c3ccccc23)-c2ccccc21               GI50   > 25 µM (inactive)
 2  COc1cc(C=C2C(C)=NN(c3cccc(Cl)c3)C23C(Cl)C(=O)N3c2nc3ccccc3s2)ccc1O (centres undefined)               GI50     27 µM (inactive)
 3  CC(C)=CCc1c(O)c(CC=C(C)C)c2oc(-c3ccc(O)cc3O)c(CC=C(C)C)c(=O)c2c1O               GI50   3.97 µM (inactive)
 4  CC(C)(C)OC(=O)NCC(c1c[nH]c2ccc(Br)cc12)c1c[nH]c2ccc(Br)cc12               GI50     10 µM (inactive)
 5                                  NCCCNCCS               GI50  > 100 µM (inactive)
 6  C=C1N(C)c2ccc(S(=O)(=O)c3ccc4c(c3)C(C)(C)C(=C)N4C)cc2C1(C)C               GI50   24.2 µM (inactive)
 7  CCC(Sc1cc(Cl)c(C)cc1S(=O)(=O)Nc1nc(N)nc(N(C)C)n1)C(=O)O (centres undefined)               GI50   > 10 µM (inactive)
 8  C=C1C2CC[C@@](C)(O)C2[C@H]2OC(=O)C(=C)[C@@H]2C[C@H]1O (some centres undefined)               GI50   17.8 µM (inactive)
 9  Cc1cc(C)c2c(=O)n(CN3CCN(c4ccccc4)CC3)sc2n1               GI50     15 µM (inactive)
10  C[n+]1c(-c2ccc(/C=N/NC(=O)c3ccc(C(=O)N/N=C/c4ccc(-c5cn6ccccc6[n+]5C)cc4)cc3)cc2)cn2ccccc21               GI50  > 100 µM (inactive)
11                 CCOC(=O)C1=COC(C)(C)CC1=O               GI50  > 100 µM (inactive)
12  CCOC(=O)C(SCCO)C(C(=O)OCC)n1ccc(=O)[nH]c1=O (centres undefined)               GI50   38.1 µM (inactive)
13  COc1ccc(CCN2C(=O)C(=O)C(C(=O)c3ccccc3)C2c2ccccc2)cc1OC (centres undefined)               GI50   90.8 µM (inactive)
14  CN1N=C(c2ccncc2)OC1c1ccc(Cl)cc1Cl (centres undefined)               GI50   60.3 µM (inactive)

----------
# System: TK-10
# TEST_DESCRIPTION: NCI tumour cell line growth inhibition, 48 h
Calls of active or inactive are those of the source. No stated cut-off is given here; in the data, active = GI50 up to about 1.1 µM and inactive = higher.
Classes used: active, inactive

> print(dat)
                                   compound  tested.system  label.class
1   COC(=O)c1ccc(/C=C/S(=O)(=O)c2ccccc2)cc1          TK-10     inactive
2  O=C(O)[C@@H]1[C@H](C(=O)O)[C@H](C(=O)O)C[C@@H]1C(=O)O          TK-10     inactive
3  COc1ccc(NC(=O)CC(=O)N/N=C/c2ccc(N(CCC#N)S(C)(=O)=O)cc2)cc1          TK-10     inactive
4  O=C1NC2C(=CC(O)C(O)C2O)c2cc3c(cc21)OCO3 (centres undefined)          TK-10       active
5         CC(=O)Nc1ccc(S(=O)(=O)N=S(C)C)cc1          TK-10     inactive
6  CNC(=O)[C@H](Cc1ccccc1)NC(=O)N(CCC#N)CCN(C(=O)N[C@@H](Cc1ccccc1)C(=O)OC)c1ccccc1          TK-10     inactive
7           COC(=O)/C=C1/OC(c2ccccc2)=CC1=O          TK-10     inactive
8  O=C1[C@@H]2[C@@H](CN3CN(c4ccccc4)N=C(c4ccccc4)[C@@]23c2ccccc2)C(=O)N1c1ccccc1          TK-10     inactive
9  CN(C)CCCN1C(=O)N(CCCN(C)C)c2c3cc(O)ccc3nc3c([N+](=O)[O-])ccc1c23          TK-10     inactive

Reference source for all entries: ChEMBL document CHEMBL1201862
